# experiment_notes: gradient 5% acetonitrile 3 min, to 50% in 2 min, to 85% in 15 min, held 3 min, 100 µL/min
# condition_context: column: Zorbax Extend-C18 2.1 x 50 mm; eluents: water / acetonitrile, 0.1% formic acid
Rule for this label: TRUE means RP-LC retention time is less than 900 s; FALSE means RP-LC retention time is at least 900 s.

State whether 900 s exceeds RP-LC retention time recorded for "CCc1ccc(S(=O)(=O)N2CC(c3nc(-c4ccccc4)nn3C)C2)cc1" .
FALSE

Try this compound too: CC1CCC2(CC1)NC(=O)N(CC(=O)NCc1ccccc1Cl)C2=O (stereo not given)
TRUE

Subsequent entry: "Cc1[nH]nc(-c2c(C)sc(C)c2S(=O)(=O)Nc2ccc(Cl)cc2)c1C"
FALSE

Same thing, different compound: "Cc1nc(-c2noc(-c3cccnc3)n2)cn1CC(=O)NCc1cccs1"
TRUE

Would you kindly repeat that for "O=C(NCc1cccs1)c1nc(N2CCOCC2)c2ccccc2n1" ?
TRUE

Next compound: "CCOc1ccc(CN2C[C@@H]3C(=O)N(Cc4ccc5c(c4)OCO5)C(=O)[C@@H]3C2)cc1"
TRUE

Entry "CC(C)c1ccc(NC(=O)Cn2nc(C(=O)N3CCCC3)c3ccccc32)cc1" please
FALSE

Also need "c1ccc2c(c1)Nc1ccncc1S2" , thanks.
TRUE

Input "CCn1cnc2c1CN(S(=O)(=O)c1cccc(C#N)c1)CC2"
TRUE

Please do the same for O=C(CC1CCOC2(CCN(Cc3cccs3)CC2)C1)NC1CC1 (stereo not given) as well.
TRUE

Would you mind doing "O=C(Cn1ccc2ccccc21)NCc1ccc(OC(F)(F)F)cc1" as well?
FALSE

What do we get for Cc1cc(Cl)ccc1S(=O)(=O)N1CCn2c(nnc2C2CCN(C(C)C)C2)C1 (stereo not given) ?
TRUE

Also check "COc1cc(NC(=O)N2CCN(Cc3ccccc3)c3ncccc32)cc(OC)c1OC"
TRUE

Next record, please: O=C(NCC1CC1)C1(CCO)CCN(Cc2ccccc2)C1 (stereo not given)
TRUE

Repeat with "COc1ccc(C(=O)N2CCc3ccc(C(=O)Nc4ccc5c(c4)OCO5)cc32)cc1"
TRUE

# iterate: "CCOc1ccc(NC(=O)c2cccn2-c2cccnc2)cc1"
TRUE

Let us now turn to COCCCN(CC(=O)N1CCc2sccc2C1COc1ccc(Cl)cc1)C(=O)NC(C)C (stereo not given)
FALSE

###

# experiment_notes: gradient 5% acetonitrile 3 min, to 50% in 2 min, to 85% in 15 min, held 3 min, 100 µL/min
# condition_context: column: Zorbax Extend-C18 2.1 x 50 mm; eluents: water / acetonitrile, 0.1% formic acid
Mark true (1) for RP-LC retention time under 700 s, false (0) if at or over.

Threshold test, RP-LC retention time < 700 s: "O=C(O)c1cc2nc(-c3ccc(F)cc3)cc(C(F)(F)F)n2n1"
false (0)

Field entry: O=C(NC(c1ccccc1)c1nnc(-c2ccccc2)o1)c1ccco1 (stereo not drawn)
false (0)

Try the compound CC1OC1c1ccc(-c2ccc(C3OC3C)cc2)cc1 (stereo not drawn)
false (0)

Entry to check: "CC(=O)N[C@@H]1CN(C(=O)Cc2cccc3ccccc23)C[C@H]1CO"
true (1)

Here is the next compound: "CCCN(CCC)S(=O)(=O)c1cccc(-c2cn3cccc(C)c3n2)c1"
false (0)

# repeat for "CN1c2cc(F)ccc2C(=O)NC12CCN(C(=O)NCc1ccccc1)CC2"
false (0)

Item: "CCn1c(=O)c(C)nc2cc(-c3noc(/C=C/c4ccc(OC)c(OC)c4)n3)ccc21"
false (0)

What do you have for "CCOCC(=O)Nc1ccc(-c2ccc(S(C)(=O)=O)nn2)cc1" ?
true (1)

Try "C=Cc1ccc(CN2CCCN(c3ncccc3-c3nc(CCC)no3)CC2)cc1" next.
false (0)

Note, next up: "Cc1cccc(S(=O)(=O)N2CCc3c(c(-c4nnc(-c5ccc(F)cc5)o4)nn3C)C2)c1"
false (0)

Next compound: "COc1ccc(NC(=O)N2CCC(c3nc(C(=O)N4CCOCC4)c(C)o3)CC2)c(C)c1"
true (1)

What do you get for "CCSc1nnc(NC(=O)c2csc(Nc3cccnc3)n2)s1" ?
true (1)

And "O=C(CCn1nnc2cc(-c3noc(-c4ccc(C(F)(F)F)cc4)n3)ccc21)N1CCOCC1" ?
false (0)

"O=C(Nc1cc(F)ccc1F)C1CCN(S(=O)(=O)c2cccnc2)CC1" , same question.
false (0)

Check "Cc1cc(-c2nnc(NC(=O)c3ccc4c(c3)OCCO4)o2)n(C)n1" too.
true (1)

Item: "CCOC(=O)c1sc(NC(=O)CC(C)C)nc1-c1ccccc1"
false (0)

Continue with COc1ccc2c(c1)C1(CCN(C(=O)c3cccc(C)c3)C1)C(=O)N2C (stereo not drawn)
false (0)

// repeat for Cc1ccc2c(c1)N(S(C)(=O)=O)CCC(C(=O)Nc1ccc(F)cc1)O2 (stereo not drawn) and report
false (0)

And for "O=C(COc1ccc(Cl)cc1)Nc1nc2ccc([N+](=O)[O-])cc2s1" ?
false (0)

"Cc1cccc(OCc2nc(-c3ccc4c(c3)nnn4CCC(=O)N3CCOCC3)no2)c1" ?
false (0)

Try "COc1cccc(-c2noc(CSc3nccn3-c3ccccc3)n2)c1OC" next.
false (0)

Repeat for the following compound: COc1cccc(S(=O)(=O)N2CCC(Cc3nncn3C)C2)c1 (stereo not drawn)
true (1)

Repeat with "COc1ccc(N2CCN(S(=O)(=O)c3cc(-c4csc(C)n4)ccc3C)CC2)cc1"
false (0)

Same for "CCc1ccc(NC(=O)Cn2c(C)nc3onc(C)c3c2=O)cc1"
false (0)

One more compound: "Cc1ccccc1N1CCN(Cc2nc(-c3ccc(N4CCSCC4)nc3)no2)CC1"
false (0)

Then "CCn1c(C(=O)N2CCN(Cc3ccccc3)CC2)cc2c(-c3cccs3)nn(-c3ccccc3)c21" ?
false (0)

Now give it for "CCOC(=O)N1CCN(c2nc(F)c3c(c2F)S(=O)(=O)CCN3C2CCCCC2)CC1" too.
false (0)

###

# experiment_notes: gradient 5% acetonitrile 3 min, to 50% in 2 min, to 85% in 15 min, held 3 min, 100 µL/min
# condition_context: column: Zorbax Extend-C18 2.1 x 50 mm; eluents: water / acetonitrile, 0.1% formic acid
readout_name: RP-LC retention time (s)
Lab book: enter the figure in s, no units written.

Name the recorded RP-LC retention time for O=C1CCC2(C(=O)NCCN3CCOCC3)CCCC=C2N1c1ccccc1 (stereo not given) .
553

Now the same for "Cc1cccc(-n2c(=O)c3c(cc(C)n3C)n(CC(=O)Nc3ccc(C)cc3Cl)c2=O)c1"
942

Continue with "O=S(=O)(Cc1noc(-c2ccc(F)cc2F)n1)c1ccc(Cl)cc1"
1160

Same question for "COCCCn1cnc2c(-c3ccccc3)cn(CC(=O)NCc3ccc4c(c3)OCO4)c2c1=O" please.
855

Also "COc1cc(Cl)ccc1C(=O)N1CCN(c2nc3ccncc3n(C)c2=O)CC1" ?
638

###

# experiment_notes: gradient 5% acetonitrile 3 min, to 50% in 2 min, to 85% in 15 min, held 3 min, 100 µL/min
# condition_context: column: Zorbax Extend-C18 2.1 x 50 mm; eluents: water / acetonitrile, 0.1% formic acid
Give RP-LC retention time for every item shown.

Recorded RP-LC retention time for "Cc1ccc(NC(=O)NCC2CCOCC2)cc1Cl" , please?
773 s

Same read-out for Cc1[nH]c2ccc(-c3nnc(SC(C)C(=O)Nc4ccc5c(c4)OCCO5)o3)cc2c1C (stereo not given) ?
936 s

Now the molecule "CC1=C(C(=O)Nc2ccc(C(=O)NCCCN3CCN(C4CCCCC4)CC3)cc2)SCCO1"
576 s

How about O=C1CC(c2nc3ccccc3n2CC(O)COc2ccccc2Cl)CN1Cc1ccccc1 (stereo not given) ?
797 s

Record: "COC(=O)c1c(-c2ccccc2)noc1NCc1ccccc1OC"
1100 s

Moving on to "Cn1c(C(=O)N2CCN(c3cccc(Cl)c3)CC2)cc2sccc21"
1090 s

Same question for CC(=O)NCC1CNCC12CCCCC2 (stereo not given) please.
509 s

Now give it for "CC1CCN(C(=O)c2cc(S(=O)(=O)N(C)CC(=O)NC3CC3)cn2C)CC1" too.
693 s

Entry to check: "Cc1cccc(NC(=O)Cn2nc(C(=O)N3CCCC3)c3ccccc32)c1"
842 s

Moving on to "O=C(NCCC1CCN(S(=O)(=O)c2ccccc2)CC1)Nc1ccc(F)cc1"
883 s

Then what about the molecule "COc1ccc(C)cc1NS(=O)(=O)c1cc(-c2c(C)noc2NC(C)=O)ccc1C" ?
804 s

Proceed to CCc1ccc(OCC(=O)N(Cc2ccc(OC)cc2)C2CCS(=O)(=O)C2)cc1 (stereo not given)
989 s

Another molecule: "Cn1ccc2c(cc(C(=O)NCc3cccc(Cl)c3)n2C)c1=O"
724 s

Repeat for the following molecule: "NS(=O)(=O)c1ccc(CNC(=O)C2CCN(C(=O)NCc3cccs3)CC2)cc1"
612 s

Field entry: COCCCNC(=O)CN1C(=O)C2CCCCN2c2ccc(C(=O)N(C)C)cc21 (stereo not given)
655 s

One more molecule: "COc1ccc(N2CCN(c3cc(SCC(=O)Nc4ccc(C)c(F)c4)ncn3)CC2)cc1"
1030 s

Can you check "CC(=O)Nc1nsc(N2CCC(C(=O)N3CCN(c4ccccc4)CC3)CC2)n1" next?
659 s

Quick one: CC(=O)N1CCc2cc(N3CC(C(=O)NCc4cccc(Cl)c4)CC3=O)ccc21 (stereo not given)
702 s

Now consider CC1CCN(Cc2nc(-c3ccc(N4CCCC(C)C4)nc3)no2)CC1 (stereo not given) .
695 s

Another molecule to check: CC(NC(=O)C1CCN(C(=O)N2CCOc3ccc(Cl)cc32)CC1)c1ccccc1 (stereo not given)
906 s

Same for "Cc1nc(-c2cc(S(=O)(=O)Nc3ccc(Br)c(C)c3)c(C)s2)cs1"
1120 s

Now this one: "COc1cccc(CNC(=O)Cn2c(=O)c(CCC(=O)NCC(C)C)nc3ccccc32)c1OC"
757 s

Quick one: "CCn1cc(-c2ccc(Cl)cc2)cc1C(=O)NCCCN1CCOCC1"
709 s

Follow-up entry: COCCN1C(=O)c2ccccc2C(C(=O)NCCc2ccccc2)C12CCCC2 (stereo not given)
827 s

One more molecule: CCc1ccc(NC(=O)C2CCCN(c3ccc(=O)n(-c4cccc(Cl)c4)n3)C2)cc1 (stereo not given)
922 s

Repeat for the following molecule: "O=S(=O)(c1cc(-c2nnc(C3CC3)o2)co1)N1CCCCC1"
839 s

Next: CCc1ccccc1NC(=O)N(C)CC1CCOC1 (stereo not given)
699 s

One more molecule: "Cc1ccc(-c2noc(Cn3cnc4c(cnn4-c4ccccc4)c3=O)n2)cc1"
1090 s

Further, for "COc1ccc(-c2cn3c(CC(=O)N4CCN(C5CCCCC5)CC4)csc3n2)cc1OC" ?
594 s

Same read-out for "CCSc1nnc(-c2nn(C)c3c2CN(S(=O)(=O)c2ccc4c(c2)OCCO4)CC3)n1CC" ?
895 s

Lookup "O=C(/C=C/c1ccccc1Cl)c1ccc(O)cc1"
944 s

Another: "COc1ccc(Nc2n[nH]nc2C(=O)Nc2ccccc2Br)cc1"
1050 s

Now consider CCc1ccc(C(O)CN2CCN(c3ccccn3)CC2)cc1 (stereo not given) and answer again.
572 s

// repeat for "O=C(CN1CCN(Cc2cccc(Cl)c2)C1=O)N1CCN(C2CCCCC2)CC1" and report
648 s

Lookup "COc1ccc(-c2c(C(=O)N(C)Cc3ccco3)nc3ccccn23)cc1"
698 s

What do you get for "Cc1ccc(NC(=O)N2CCC(N3CCN(Cc4ccccn4)C(=O)C3=O)CC2)c(Cl)c1" ?
876 s

Query COc1cccc(S(=O)(=O)N2CCC3(C2)C(=O)N(C)c2ccc(OC)cc23)c1 (stereo not given) next
904 s

Item: "COc1ncccc1CNC(=O)NCc1ccc(F)cc1"
668 s

Then this molecule: "CCc1ccc(NC(=O)Nc2cccn3nc(C)nc23)cc1"
869 s

Input "O=C(Cc1nnc(-c2ccccc2)o1)NCC1CC1"
684 s
